# credit: the supplement of paper PMC8975748

- Test system: Saccharomyces cerevisiae BY4741 SeMeCo community
- protocol: mean cell size (pixel area) (pixels); higher = larger cells
- condition.info: 10 µM; 24 h; SM minimal medium

molecule	mean cell size
O=C(c1ccc(OCCN2CCCCC2)cc1)c1c(-c2ccc(O)cc2)sc2cc(O)ccc12 [Raloxifene]	12.3
O=C(O)CCC(=O)c1ccc(-c2ccccc2)cc1	12.8
Cc1ccc(Nc2c(F)cccc2Cl)c(CC(=O)O)c1	12.9
CC(=O)OC(C)C[N+](C)(C)C (centres undefined) [Methacholine chloride]	12.5

----------
z-score of subpopulation abundance overview
- Tested on: Saccharomyces cerevisiae BY4741 SeMeCo community
- protocol: z-score of subpopulation abundance vs DMSO median, subpopulation auxotrophic for LUM; higher = larger share of this subpopulation than in DMSO controls
- condition.info: 10 µM; 24 h; SM minimal medium; subpopulation (auxotrophy): LUM
Structures can show the parent of a compound that is named as a salt.
metric: z-score of subpopulation abundance

compound	measured.on	metric	value.observed
CCCNCC(O)COc1ccccc1C(=O)CCc1ccccc1 (stereo unspecified) [Propafenone HCl]	Saccharomyces cerevisiae BY4741 SeMeCo community	z-score of subpopulation abundance	0.61
O=[N+]([O-])c1ccc(O)c2ncccc12 [Nitroxoline]	Saccharomyces cerevisiae BY4741 SeMeCo community	z-score of subpopulation abundance	11
CN(Cc1cnc2nc(N)nc(N)c2n1)c1ccc(C(=O)N[C@@H](CCC(=O)O)C(=O)O)cc1 [Methotrexate disodium]	Saccharomyces cerevisiae BY4741 SeMeCo community	z-score of subpopulation abundance	-1.74
Nc1nc2ccc(OC(F)(F)F)cc2s1 [Riluzole]	Saccharomyces cerevisiae BY4741 SeMeCo community	z-score of subpopulation abundance	-0.13
Oc1c(Cl)cc(Cl)c2cccnc12 [Chloroxine]	Saccharomyces cerevisiae BY4741 SeMeCo community	z-score of subpopulation abundance	17.1
CC[C@@H](CO)NCCN[C@@H](CC)CO [Ethambutol 2HCl]	Saccharomyces cerevisiae BY4741 SeMeCo community	z-score of subpopulation abundance	1.15

----------
- Tested on: Saccharomyces cerevisiae BY4741 SeMeCo community
- protocol: z-score of subpopulation abundance vs DMSO median, subpopulation auxotrophic for HLUM; higher = larger share of this subpopulation than in DMSO controls
- condition.info: 10 µM; 24 h; SM minimal medium; subpopulation (auxotrophy): HLUM
Structures can show the parent of a compound that is named as a salt.
metric: z-score of subpopulation abundance

compound	measured.on	metric	value.observed
N=C(N)NS(=O)(=O)c1ccc(N)cc1	Saccharomyces cerevisiae BY4741 SeMeCo community	z-score of subpopulation abundance	-1.13
Cc1nc(C)c(Cl)c(O)c1Cl	Saccharomyces cerevisiae BY4741 SeMeCo community	z-score of subpopulation abundance	-0.36
O=C(Cn1cnnn1)N[C@@H]1C(=O)N2C(C(=O)O)=C(CSc3nncs3)CS[C@H]12 [Ceftezole]	Saccharomyces cerevisiae BY4741 SeMeCo community	z-score of subpopulation abundance	0.55
C[C@H]1COc2c(C3(N)CC3)c(F)cc3c(=O)c(C(=O)O)cn1c23 [Pazufloxacin mesylate]	Saccharomyces cerevisiae BY4741 SeMeCo community	z-score of subpopulation abundance	0.08
CC(C)NNC(=O)c1ccncc1	Saccharomyces cerevisiae BY4741 SeMeCo community	z-score of subpopulation abundance	0.07
O=C1CC2(CCCC2)CC(=O)N1CCCCN1CCN(c2ncccn2)CC1 [Buspirone HCl]	Saccharomyces cerevisiae BY4741 SeMeCo community	z-score of subpopulation abundance	0.74
CC(C)Cc1ccc(C(C)C(=O)O)cc1 (configuration not stated) [Ibuprofen]	Saccharomyces cerevisiae BY4741 SeMeCo community	z-score of subpopulation abundance	-0.59

----------
- Test system: Saccharomyces cerevisiae BY4741 SeMeCo community
- protocol: z-score of subpopulation abundance vs DMSO median, subpopulation auxotrophic for HL; higher = larger share of this subpopulation than in DMSO controls
- condition.info: 10 µM; 24 h; SM minimal medium; subpopulation (auxotrophy): HL
Where a name gives a salt, the structure may show the parent alone.
metric: z-score of subpopulation abundance

molecule	metric	value.observed
COc1ccc(C(=O)NCc2ccc(OCCN(C)C)cc2)cc1OC [Itopride hydrochloride]	z-score of subpopulation abundance	-0.33
C=C1CCC2C(C)(CO)C(O)CCC2(C)C1CC=C1C=COC1=O (configuration not stated) [Dehydroandrographolide]	z-score of subpopulation abundance	1.67
COc1c(N2CCNC(C)C2)c(F)cc2c(=O)c(C(=O)O)cn(C3CC3)c12 (configuration not stated) [Gatifloxacin]	z-score of subpopulation abundance	-0.93
O=C(Nc1cc(Cl)cc(Cl)c1O)c1c(O)c(Cl)cc(Cl)c1Cl [Oxyclozanide]	z-score of subpopulation abundance	1.03
CC1=C(C(=O)O)N2C(=O)[C@@H](NC(=O)[C@H](N)c3ccc(O)cc3)[C@H]2SC1 [Cefadroxil hydrate]	z-score of subpopulation abundance	-0.19
CCS(=O)(=O)CCn1c([N+](=O)[O-])cnc1C [Tinidazole]	z-score of subpopulation abundance	-0.55
CO[C@@H]1[C@@H](O[C@@H]2O[C@H](C)[C@@H](O[C@H]3C[C@@](C)(O)[C@@H](O)[C@H](C)O3)[C@H](N(C)C)[C@H]2O)[C@@H](CC=O)C[C@@H](C)[C@@H](O[C@H]2CC[C@H](N(C)C)[C@@H](C)O2)/C=C/C=C/C[C@@H](C)OC(=O)C[C@H]1OC(C)=O [Acetylspiramycin (ASPM)]	z-score of subpopulation abundance	1.77
O=C(C1CCCCC1)N1CC(=O)N2CCc3ccccc3C2C1 (configuration not stated) [Praziquantel]	z-score of subpopulation abundance	-0.41
CCCOc1ccc(C(=O)OCCN(CC)CC)cc1N [Proparacaine HCl]	z-score of subpopulation abundance	-0.68
CCC[C@@H]1C[C@@H](C(=O)N[C@@H]([C@H]2O[C@H](SC)[C@H](O)[C@@H](O)[C@H]2O)[C@@H](C)O)N(C)C1 [Lincomycin HCl]	z-score of subpopulation abundance	-0.34
Nc1ccc(S(=O)(=O)Nc2ncccn2)cc1 [Sulfadiazine]	z-score of subpopulation abundance	-0.65
C[N+](C)(C)CCO.[Cl-] [Choline Chloride]	z-score of subpopulation abundance	-0.62
O=C(c1ccccc1)c1ccc2n1CCC2C(=O)O (configuration not stated) [Ketorolac]	z-score of subpopulation abundance	0.33
COCCOC(=O)C1=C(C)NC(C)=C(C(=O)OC(C)C)C1c1cccc([N+](=O)[O-])c1 (configuration not stated) [Nimodipine]	z-score of subpopulation abundance	-0.61
NC[C@@H]1O[C@H](O[C@H]2[C@@H](O)[C@H](O[C@@H]3[C@@H](O)[C@H](N)C[C@H](N)[C@H]3O[C@H]3O[C@H](CN)[C@@H](O)[C@H](O)[C@H]3N)O[C@@H]2CO)[C@H](N)[C@@H](O)[C@@H]1O [Neomycin sulfate]	z-score of subpopulation abundance	-0.31
COc1ccc2cc([C@H](C)C(=O)O)ccc2c1 [Naproxen]	z-score of subpopulation abundance	0.23
CC(C)COCC(CN(Cc1ccccc1)c1ccccc1)N1CCCC1 (configuration not stated) [Bepridil hydrochloride]	z-score of subpopulation abundance	1.07

----------
- Tested on: Saccharomyces cerevisiae BY4741 SeMeCo community
- protocol: mean cell size (pixel area) (pixels); higher = larger cells
- condition.info: 10 µM; 24 h; SM minimal medium
Structures can show the parent of a compound that is named as a salt.
Reported mean cell size is given for each of the following molecules.
metric: mean cell size

molecule	value.observed
O=C(c1ccc(OCCN2CCCCC2)cc1)c1c(-c2ccc(O)cc2)sc2cc(O)ccc12 [Raloxifene HCl]	12.2
N=C(N)NC(=O)c1nc(Cl)c(N)nc1N [Amiloride HCl]	12.6
O=C1[C@H]2CCCC[C@H]2C(=O)N1CCCCN1CCN(c2nsc3ccccc23)CC1 [Perospirone hydrochloride]	12.5
CS(=O)(=O)c1ccc([C@@H](O)[C@@H](CO)NC(=O)C(Cl)Cl)cc1	12.4
CC1=C[C@H]2C(=O)O[C@H]3C[C@@H](C/C=C(\C)C[C@@H](C)/C=C/C=C4\CO[C@H](/C1=N\O)[C@@]42O)O[C@@]1(CC[C@H](C)[C@@H](C)O1)C3.CC[C@H]1O[C@]2(CC[C@@H]1C)C[C@@H]1C[C@@H](C/C=C(\C)C[C@@H](C)/C=C/C=C3\CO[C@@H]4/C(=N\O)C(C)=C[C@@H](C(=O)O1)[C@]34O)O2	12.4
C=CC[C@@H]1/C=C(\C)C[C@H](C)C[C@H](OC)[C@H]2O[C@@](O)(C(=O)C(=O)N3CCCC[C@H]3C(=O)O[C@H](/C(C)=C/[C@@H]3CC[C@@H](O)[C@H](OC)C3)[C@H](C)[C@@H](O)CC1=O)[C@H](C)C[C@@H]2OC	12
C[N+]1(C)CCC(OC(=O)C(O)(c2ccccc2)C2CCCC2)C1 (stereo not given) [Glycopyrrolate]	12.3
CCCN[C@H]1CCc2nc(N)sc2C1 [Pramipexole]	12.3
c1ccc(-c2ccc(C(c3ccccc3)n3ccnc3)cc2)cc1 (stereo not given)	12.6
CCCc1nn(C)c2c(=O)[nH]c(-c3cc(S(=O)(=O)N4CCN(C)CC4)ccc3OCC)nc12 [Sildenafil]	11.4
COc1ccc(-c2nc3cc(C4=NNC(=O)CC4C)ccc3[nH]2)cc1 (stereo not given)	12.3
CC(C[N+](C)(C)C)OC(N)=O (stereo not given) [Bethanechol chloride]	12.5
CCn1cc(C(=O)O)c(=O)c2cc(F)c(N3CCN(C)CC3)cc21 [Pefloxacin Mesylate Dihydrate]	12.7
C[C@H]1c2cccc(O)c2C(=O)C2=C(O)[C@]3(O)C(=O)C(C(N)=O)=C(O)[C@@H](N(C)C)[C@@H]3[C@@H](O)[C@@H]21 [Doxycycline monohydrate]	12.2
CCN(CC)CCOC(=O)c1ccc(N)cc1Cl [Chloroprocaine HCl]	12.5
